Tested on: Staphylococcus epidermidis
Assay name: In vitro antibacterial activity against Staphylococcus epidermidis 3519
Format: functional
Each entry below carries its recorded log10 of MIC.
In plain terms, each number is the log10 of measured MIC in µg/mL.

Compound | log10 of MIC
CCCCS/C=C(\C)C[C@@H]1OCC(C[C@@H]2O[C@H]2[C@@H](C)[C@H](C)O)[C@@H](O)[C@H]1O (some centres undefined) | -0.11
C/C(=C\Sc1ccccc1)C[C@@H]1OC[C@H](C[C@@H]2O[C@H]2[C@@H](C)[C@H](C)O)[C@@H](O)[C@H]1O | 0.79
CSC(CCCCCCCCCC(=O)/C=C(\C)C[C@@H]1OCC(C[C@@H]2O[C@H]2[C@@H](C)[C@H](C)O)[C@@H](O)[C@H]1O)(SC)SC (some centres undefined) | 0.19
C[C@H]([C@@H]1O[C@H]1CC1CO[C@@H](CC2=CC(=O)OC2)[C@H](O)[C@@H]1O)[C@H](C)O (some centres undefined) | 2.00
COC(=O)CCCCCCCCOC(=O)/C=C(\C)C[C@@H]1OCC(C[C@@H]2O[C@H]2[C@@H](C)[C@H](C)O)[C@@H](O)[C@H]1O (some centres undefined) | -0.41

-- ask Find the measured log10 of MIC of COC(=O)CCCCCCCCCC(=O)/C=C(\C)C[C@@H]1OCC(C[C@@H]2O[C@H]2[C@@H](C)[C@H](C)O)[C@@H](O)[C@H]1O (some centres undefined) and report it.
-- reply -0.41

-- ask Find the measured log10 of MIC of C/C(=C\C(=O)OCCCCCCCCC(=O)[O-])C[C@@H]1OCC(C[C@@H]2O[C@H]2[C@@H](C)[C@H](C)O)[C@@H](O)[C@H]1O.[Na+] (some centres undefined) and report it.
-- reply -1.00

---

Tested on: Streptococcus pyogenes
Assay name: In vitro antibacterial activity against Streptococcus pyogenes EES 61
Assay type: functional
Condition parameters: Streptococcus pyogenes; read-out: MIC
// NB: equality with 50 µg/mL counts as label 0; only MIC strictly below is label 1

Example results:
Compound | Answer label
C[C@H]([C@@H]1O[C@H]1CC1CO[C@@H](Cc2ccoc2)[C@H](O)[C@@H]1O)[C@H](C)O (stereo partly drawn) | label 0
COC(=O)CCCCCCCCOC(=O)CC(=O)C[C@@H]1OCC(C[C@@H]2O[C@H]2[C@@H](C)[C@H](C)O)[C@@H](O)[C@H]1O (stereo partly drawn) | label 0
CCCCS/C=C(/C)C[C@@H]1OCC(C[C@@H]2O[C@H]2[C@@H](C)[C@H](C)O)[C@@H](O)[C@H]1O (stereo partly drawn) | label 0
CCCCSC/C=C(\C)C[C@@H]1OCC(C[C@@H]2O[C@H]2[C@@H](C)[C@H](C)O)[C@@H](O)[C@H]1O (stereo partly drawn) | label 0
C/C(=C\C(=O)OCCCCCCCCC(=O)[O-])C[C@@H]1OCC(C[C@@H]2O[C@H]2[C@@H](C)[C@H](C)O)[C@@H](O)[C@H]1O.[Na+] (stereo partly drawn) | label 1

-- ask Is MIC of `C/C(=C\Sc1ccccc1)C[C@@H]1OC[C@H](C[C@@H]2O[C@H]2[C@@H](C)[C@H](C)O)[C@@H](O)[C@H]1O` strictly below 50 µg/mL?
-- reply label 1

-- ask Is MIC of CSC(CCCCCCCCCC(=O)/C=C(\C)C[C@@H]1OCC(C[C@@H]2O[C@H]2[C@@H](C)[C@H](C)O)[C@@H](O)[C@H]1O)(SC)SC (stereo partly drawn) strictly below 50 µg/mL?
-- reply label 1
